Target: T1, Human IL2Rγ extracellular domain expressed with a C-terminal mouse IgG2a Fc tag (human)
T1 construct: whole entry is the Fc-fused construct; also called hIL-2Rg-mFc
T1 chain: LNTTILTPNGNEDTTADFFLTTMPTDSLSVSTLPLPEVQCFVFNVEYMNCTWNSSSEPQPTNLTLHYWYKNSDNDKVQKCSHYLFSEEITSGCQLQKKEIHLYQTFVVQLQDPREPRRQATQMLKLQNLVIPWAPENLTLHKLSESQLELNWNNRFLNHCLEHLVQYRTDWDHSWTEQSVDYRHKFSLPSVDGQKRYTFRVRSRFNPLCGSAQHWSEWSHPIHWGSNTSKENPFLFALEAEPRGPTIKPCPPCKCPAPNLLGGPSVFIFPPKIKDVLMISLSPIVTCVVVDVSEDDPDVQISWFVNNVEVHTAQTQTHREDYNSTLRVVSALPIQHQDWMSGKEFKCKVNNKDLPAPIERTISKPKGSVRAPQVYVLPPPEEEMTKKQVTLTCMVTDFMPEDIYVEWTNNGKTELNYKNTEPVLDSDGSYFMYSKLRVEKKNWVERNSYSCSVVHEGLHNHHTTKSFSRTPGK
Experiment: SPR Biacore 4000, anti-hFc-captured mAb, 37 C
property-name: 50 nM Ag Bound (RU)

H4H12889P (antibody, human IgG4 S228P, kappa, V domains shown, fully human anti-IL2Rgamma mAb, human IgG4 Fc; also called REGN7257) VH: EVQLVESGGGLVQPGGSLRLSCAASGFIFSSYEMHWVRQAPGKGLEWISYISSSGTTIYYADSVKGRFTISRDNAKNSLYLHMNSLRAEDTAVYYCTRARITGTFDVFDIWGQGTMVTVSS VL: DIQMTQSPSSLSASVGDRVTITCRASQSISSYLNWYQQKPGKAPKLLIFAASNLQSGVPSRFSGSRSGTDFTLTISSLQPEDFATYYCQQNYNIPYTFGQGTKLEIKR | 39
H4H12884P (antibody, human IgG4 S228P, kappa, V domains shown, fully human anti-IL2Rgamma mAb, human IgG4 Fc) VH: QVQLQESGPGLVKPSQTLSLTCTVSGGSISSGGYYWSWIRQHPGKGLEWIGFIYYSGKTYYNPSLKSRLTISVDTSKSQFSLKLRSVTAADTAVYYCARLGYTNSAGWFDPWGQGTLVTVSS VL: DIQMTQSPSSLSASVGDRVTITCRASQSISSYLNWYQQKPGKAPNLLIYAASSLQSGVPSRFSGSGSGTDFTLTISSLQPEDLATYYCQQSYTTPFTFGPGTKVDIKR | 85
H4H12874P (antibody, human IgG4 S228P, kappa, V domains shown, fully human anti-IL2Rgamma mAb, human IgG4 Fc) VH: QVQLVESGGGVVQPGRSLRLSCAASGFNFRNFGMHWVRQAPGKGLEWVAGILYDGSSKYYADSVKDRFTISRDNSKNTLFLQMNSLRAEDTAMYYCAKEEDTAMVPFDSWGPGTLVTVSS VL: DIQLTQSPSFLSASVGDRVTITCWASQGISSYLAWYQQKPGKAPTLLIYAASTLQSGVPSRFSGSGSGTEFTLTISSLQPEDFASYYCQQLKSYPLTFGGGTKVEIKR | 14
